Items are presented alongside their recorded pKd.
TESTED_ON: T1, human IL-18BP (interleukin-18 binding protein, isoform A) (human, UniProt O95998 31-194)
T1 construct: cell assays used Sino Biological 10357-H08H; PBMC assay 1 relies on endogenous IL-18BP; UniProt number is printed as 095998; also called hIL-18BP
T1 sequence: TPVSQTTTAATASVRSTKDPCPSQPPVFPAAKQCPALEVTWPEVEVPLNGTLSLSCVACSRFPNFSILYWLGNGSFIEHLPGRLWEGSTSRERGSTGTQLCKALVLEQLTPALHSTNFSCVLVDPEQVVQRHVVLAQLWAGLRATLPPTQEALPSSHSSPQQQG
ASSAY_INFO: BLI single-concentration screen, apparent KD
// returns pKd (minus log10 of molar concentration), number only

Reference set (3 entries):
- BINDER: "SA301a heavy chain variant N33bG, C34S (antibody, human IgG1, V domains shown, library variant, human IgG1/kappa, from supernatant) VH: QVQLQESGPGLVKPSQTLSLTCTVSGYSITSDYGSHWIRQPPGKGLEWIGYIHYSGSTNYNPSLKSRVTISRDTSKNQFSLKLSSVTAADTAVYYCARNYGSIYVNYFDYWGQGTLVTVSS VL: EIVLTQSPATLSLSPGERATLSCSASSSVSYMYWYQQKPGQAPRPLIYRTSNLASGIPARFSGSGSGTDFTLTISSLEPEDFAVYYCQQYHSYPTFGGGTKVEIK"
  pKd: 9.70
- BINDER: "SA302a heavy chain variant N33bQ, C34A (antibody, human IgG1, V domains shown, library variant, human IgG1/kappa, from supernatant) VH: QVQLQESGPGLVKPSQTLSLTCTVSGYSITSDYQAHWIRQPPGKGLEWIGYIHYSGSTNYNPSLKSRVTISRDTSKNQFSLKLSSVTAADTAVYYCARNYGSIYVNYFDYWGQGTLVTVSS VL: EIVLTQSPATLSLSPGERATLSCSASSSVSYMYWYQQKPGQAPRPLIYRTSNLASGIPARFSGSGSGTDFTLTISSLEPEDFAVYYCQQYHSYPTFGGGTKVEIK"
  pKd: 8.74
- BINDER: "heavy chain library variant C34I (antibody, V domains shown) VH: QVQLQESGPGLVKPSQTLSLTCTVSGYSITSDYNIHWIRQPPGKGLEWIGYIHYSGSTNYNPSLKSRVTISRDTSKNQFSLKLSSVTAADTAVYYCARNYGSIYVNYFDYWGQGTLVTVSS VL: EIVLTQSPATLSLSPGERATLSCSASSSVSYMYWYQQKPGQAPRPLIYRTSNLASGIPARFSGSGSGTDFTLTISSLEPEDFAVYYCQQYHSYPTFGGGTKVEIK"
  pKd: 9.00

Requested read-out: pKd. Entry: SA301a heavy chain variant N33bP, C34S (antibody, human IgG1, V domains shown, library variant, human IgG1/kappa, from supernatant) VH: QVQLQESGPGLVKPSQTLSLTCTVSGYSITSDYPSHWIRQPPGKGLEWIGYIHYSGSTNYNPSLKSRVTISRDTSKNQFSLKLSSVTAADTAVYYCARNYGSIYVNYFDYWGQGTLVTVSS VL: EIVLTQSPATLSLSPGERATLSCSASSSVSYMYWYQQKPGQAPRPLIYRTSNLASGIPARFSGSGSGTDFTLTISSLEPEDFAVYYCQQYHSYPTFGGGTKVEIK
8.60

Requested read-out: pKd. Entry: heavy chain library variant C34P (antibody, V domains shown) VH: QVQLQESGPGLVKPSQTLSLTCTVSGYSITSDYNPHWIRQPPGKGLEWIGYIHYSGSTNYNPSLKSRVTISRDTSKNQFSLKLSSVTAADTAVYYCARNYGSIYVNYFDYWGQGTLVTVSS VL: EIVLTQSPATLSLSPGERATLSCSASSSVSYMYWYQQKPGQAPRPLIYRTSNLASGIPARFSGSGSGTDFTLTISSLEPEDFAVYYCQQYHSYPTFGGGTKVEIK
7.69
